The measurements presented in this section are drawn from PubChem BioAssay (NCI).

Overview of reported TGI across a group of compounds:
# Test system: SF-539 CNS
# method: NCI tumour cell line growth inhibition, 48 h

compound | TGI
CCCCN(CC)CC(C(C)=O)c1c(O)c2ccccc2oc1=O (stereo unspecified) | > 100 µM
O=C(C(Cl)=C(N1CCOCC1)N1CCOCC1)C(Cl)Cl | > 100 µM
Cc1nc(C(N)=S)sc1C(=O)/C=C/c1c(O)ccc2ccccc12 | > 100 µM
O=c1oc2ccccc2[n+]([O-])c1-c1ccccc1 | > 100 µM
COc1ccc(C(=O)NCCN(C)C)c2nc3ccccc3nc12 | 17.6 µM
N#Cc1nc(C2CCC2)oc1N | > 100 µM
CC(=O)N1CCC2(c3ccccc3N(C(C)=O)C2c2ccc(O)cc2)C1C(=O)O (stereo unspecified) | > 100 µM
Cn1cc(C2=C(c3cn(C4CCN(Cc5ccccn5)CC4)c4ccccc34)C(=O)NC2=O)c2ccccc21 | > 100 µM
CCOC(=O)/C=C(\C(=O)OCC)n1ccc(=O)n(Cc2cn(COCCOC(C)=O)nn2)c1=O | 38.9 µM
CCOC(=O)C1SC(=Nc2ccc(Cl)cc2)N=C1C (stereo unspecified) | 33 µM
COc1ccc(C2c3cc4c(cc3OC(N3CCOCC3)C2C)OCO4)c(OC)c1OC (stereo unspecified) | 27.7 µM
